Origin of values: patent US20240391948A1

System: J774A.1 (Mouse BALB/c monocyte macrophage cell line) cells
ASSAY_PROCEDURE: LPS-induced TNF-α secretion inhibition in J774A.1 cells
Assay type: cell-based
REPORTED_CONDITIONS: J774.A1, 1 μM compound, graded compared to taurodeoxycholic acid (positive control), read-out: TNF-α production inhibition grade
Answer each item with its documented inhibition at 1 µM.

Field: example entries. Status: answers known.
{"SMILES_DATA": "C[C@H](CCC(=O)NCCCO)[C@H]1CC[C@H]2[C@@H]3CC[C@@H]4C[C@H](O)CC[C@]4(C)[C@H]3CC[C@]12C", "inhibition at 1 µM": "< 20%"}
{"SMILES_DATA": "C[C@H](CS(=O)(=O)O)NC(=O)CC[C@@H](C)[C@H]1CC[C@H]2[C@@H]3CC[C@@H]4C[C@H](O)CC[C@]4(C)[C@H]3CC[C@]12C", "inhibition at 1 µM": "< 20%"}
{"SMILES_DATA": "C[C@H](CCC(=O)NC[C@@H](C)S(=O)(=O)O)[C@H]1CC[C@H]2[C@@H]3[C@H](O)C[C@@H]4C[C@H](O)CC[C@]4(C)[C@H]3C[C@H](O)[C@]12C", "inhibition at 1 µM": "< 20%"}
{"SMILES_DATA": "C[C@H](CCC(=O)N[C@H](c1ccccc1)[C@H](C)S(=O)(=O)O)[C@H]1CC[C@H]2[C@@H]3CC[C@@H]4C[C@H](O)CC[C@]4(C)[C@H]3CC[C@]12C", "inhibition at 1 µM": "50 to 100%"}
{"SMILES_DATA": "C[C@H](CCC(=O)NCCCS(=O)(=O)O)[C@H]1CC[C@H]2[C@@H]3CC[C@@H]4C[C@H](O)CC[C@]4(C)[C@H]3CC[C@]12C", "inhibition at 1 µM": "< 20%"}
{"SMILES_DATA": "CC[C@H]1[C@@H](O)[C@@H]2[C@H](CC[C@]3(C)[C@@H]([C@H](C)CCC(=O)N[C@@H](Cc4ccccc4)CS(=O)(=O)O)CC[C@@H]23)[C@@]2(C)CC[C@@H](O)C[C@@H]12", "inhibition at 1 µM": "< 20%"}
{"SMILES_DATA": "C[C@H](CCC(=O)N1CCC(S(=O)(=O)O)CC1)[C@H]1CC[C@H]2[C@@H]3CC[C@@H]4C[C@H](O)CC[C@]4(C)[C@H]3CC[C@]12C", "inhibition at 1 µM": "< 20%"}
{"SMILES_DATA": "CC[C@H]1[C@@H](O)[C@@H]2[C@H](C[C@H](O)[C@]3(C)[C@@H]([C@H](C)CCC(=O)NC4(CS(=O)(=O)O)CC4)CC[C@@H]23)[C@@]2(C)CC[C@@H](O)C[C@@H]12", "inhibition at 1 µM": "< 20%"}

Would you mind giving inhibition at 1 µM for every compound in the list below?
1. C[C@H](CCC(=O)N1CCC[C@@H](S(=O)(=O)O)C1)[C@H]1CC[C@H]2[C@@H]3CC[C@@H]4C[C@H](O)CC[C@]4(C)[C@H]3C[C@H](O)[C@]12C
2. CC[C@H]1[C@@H](O)[C@@H]2[C@H](CC[C@]3(C)[C@@H]([C@H](C)CCC(=O)NC[C@H](C)S(=O)(=O)O)CC[C@@H]23)[C@@]2(C)CC[C@@H](O)C[C@@H]12

["< 20%", "20 to 50%"]
